- assayed-target: Retinoic acid receptor beta (Homo sapiens, UniProt P10826)
- Sequence (P10826 whole entry): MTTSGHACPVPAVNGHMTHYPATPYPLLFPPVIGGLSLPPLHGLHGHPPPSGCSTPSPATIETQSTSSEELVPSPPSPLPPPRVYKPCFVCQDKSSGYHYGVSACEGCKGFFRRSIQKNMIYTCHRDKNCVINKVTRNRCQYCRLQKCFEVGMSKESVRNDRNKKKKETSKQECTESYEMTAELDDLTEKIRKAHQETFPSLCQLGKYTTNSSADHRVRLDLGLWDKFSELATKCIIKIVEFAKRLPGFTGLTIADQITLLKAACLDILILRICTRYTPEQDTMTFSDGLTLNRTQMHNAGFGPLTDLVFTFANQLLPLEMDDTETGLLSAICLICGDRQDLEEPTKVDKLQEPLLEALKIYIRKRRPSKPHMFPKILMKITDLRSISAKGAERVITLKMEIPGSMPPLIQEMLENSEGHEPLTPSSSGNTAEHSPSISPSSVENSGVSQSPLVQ
- protocol: Affinity On-target Cellular interaction: (Reporter gene assay (HEK293T cells)) EUB0000835a RARB
reported-endpoint: EC50
Number first, unit second.

Query: I'd like to know its EC50. The molecule in question is "C[C@H]1[C@H]2CC[C@H]3[C@@H]4CC=C5C[C@@H](N(C)C)CC[C@]5(C)[C@H]4CC[C@]23CN1C"
Response: 10 nM

---

- assayed-target: Sodium/hydrogen exchanger 3 (Homo sapiens, UniProt P48764)
- Sequence (P48764 whole entry): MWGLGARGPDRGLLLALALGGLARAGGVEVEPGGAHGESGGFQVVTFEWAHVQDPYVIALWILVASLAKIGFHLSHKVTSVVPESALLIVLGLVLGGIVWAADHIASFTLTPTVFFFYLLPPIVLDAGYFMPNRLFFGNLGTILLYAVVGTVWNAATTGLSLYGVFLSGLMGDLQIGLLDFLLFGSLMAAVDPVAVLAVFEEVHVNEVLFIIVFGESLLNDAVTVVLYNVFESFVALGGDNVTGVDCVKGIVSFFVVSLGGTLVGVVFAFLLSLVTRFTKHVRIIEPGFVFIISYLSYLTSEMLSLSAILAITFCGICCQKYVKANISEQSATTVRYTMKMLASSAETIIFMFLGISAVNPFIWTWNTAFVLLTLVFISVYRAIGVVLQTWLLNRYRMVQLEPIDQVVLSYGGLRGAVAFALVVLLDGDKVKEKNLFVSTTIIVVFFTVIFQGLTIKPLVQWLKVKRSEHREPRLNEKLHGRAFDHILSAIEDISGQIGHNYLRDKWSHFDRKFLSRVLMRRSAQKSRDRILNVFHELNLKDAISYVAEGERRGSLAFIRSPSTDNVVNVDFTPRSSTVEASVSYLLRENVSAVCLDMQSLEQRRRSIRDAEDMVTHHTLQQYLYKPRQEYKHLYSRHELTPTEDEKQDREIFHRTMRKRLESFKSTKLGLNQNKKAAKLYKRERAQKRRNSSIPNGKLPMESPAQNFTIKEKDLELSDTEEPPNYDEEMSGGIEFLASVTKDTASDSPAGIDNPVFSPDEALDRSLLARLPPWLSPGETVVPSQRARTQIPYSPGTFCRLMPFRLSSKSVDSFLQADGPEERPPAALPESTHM
- protocol: Affinity On-target Cellular interaction: (Inhibition of Na+/H+ exchange, detection of fluorescence changes in acridine orange pH indicator, mouse fibroblast L cell line) EUB0002709aCl SLC9A3
reported-endpoint: IC50 (nM)
Enter your answer as a number in nM; do not include the unit.

Query: Could you share which IC50 value was measured for "CC(=Cc1cc(C)ccc1C=C(C)C(=O)NC(=N)N)C(=O)N=C(N)N" ?
Response: 20

---

- assayed-target: Peroxisome proliferator-activated receptor gamma (Homo sapiens)
- Sequence (P37231 whole entry): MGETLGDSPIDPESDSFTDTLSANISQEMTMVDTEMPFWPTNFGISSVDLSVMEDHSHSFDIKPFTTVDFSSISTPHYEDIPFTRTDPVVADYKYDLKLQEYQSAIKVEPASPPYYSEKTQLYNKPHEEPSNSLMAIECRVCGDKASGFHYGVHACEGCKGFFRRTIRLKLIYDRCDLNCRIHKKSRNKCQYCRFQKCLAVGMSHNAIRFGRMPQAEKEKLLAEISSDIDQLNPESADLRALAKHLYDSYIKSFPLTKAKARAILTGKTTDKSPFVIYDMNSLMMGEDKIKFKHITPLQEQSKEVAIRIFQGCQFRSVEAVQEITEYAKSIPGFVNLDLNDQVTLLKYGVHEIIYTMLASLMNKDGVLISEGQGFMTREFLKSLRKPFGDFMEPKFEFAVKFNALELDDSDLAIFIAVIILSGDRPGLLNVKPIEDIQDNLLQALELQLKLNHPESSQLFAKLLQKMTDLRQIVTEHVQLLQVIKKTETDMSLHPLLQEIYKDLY
- protocol: Affinity On-target Cellular interaction: (Reporter gene assay (HEK293T cells)) EUB0000571a PPARG
- Format: functional, cell-based, HEK-293T
- Parameters: mode of action Agonist, recommended concentration 1 uM
reported-endpoint: EC50 (nM)
Answer in nM, number only, no unit symbol.

Query: What is its EC50 for Peroxisome proliferator-activated receptor gamma (Homo sapiens)? Entry: "COC(=O)C(Cc1ccc(OCCn2c(=O)sc3cc(C(=O)c4ccccc4)ccc32)cc1)C(=O)OC"
Response: 42

---

- assayed-target: Zinc transporter SLC39A7 (Homo sapiens, UniProt Q92504)
- Sequence (Q92504 whole entry): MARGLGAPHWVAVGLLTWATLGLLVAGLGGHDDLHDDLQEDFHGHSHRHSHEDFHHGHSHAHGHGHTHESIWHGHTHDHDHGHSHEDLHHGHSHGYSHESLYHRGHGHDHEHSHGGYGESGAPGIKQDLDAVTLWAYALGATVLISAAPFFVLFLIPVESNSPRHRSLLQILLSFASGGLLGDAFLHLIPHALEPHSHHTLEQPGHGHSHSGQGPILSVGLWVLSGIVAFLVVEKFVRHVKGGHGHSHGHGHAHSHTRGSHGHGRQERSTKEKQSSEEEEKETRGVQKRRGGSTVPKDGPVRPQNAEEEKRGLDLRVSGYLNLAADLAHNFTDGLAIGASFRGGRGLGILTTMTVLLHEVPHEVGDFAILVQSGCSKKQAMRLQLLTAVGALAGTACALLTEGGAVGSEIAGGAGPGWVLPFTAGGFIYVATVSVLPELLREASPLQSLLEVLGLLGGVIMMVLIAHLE
- protocol: Affinity On-target Cellular interaction: (HES-LUC reporter gene assay, U2OS cells) EUB0002669a SLC39A7
reported-endpoint: IC50 (nM)
Report as a plain number; the unit nM is understood.

Query: What is its IC50 for Zinc transporter SLC39A7 (Homo sapiens, UniProt Q92504)? Entry: O=C1Nc2ccccc2C2(CCN(CC(Cc3ccccc3)Nc3nc4ccc(F)cc4s3)CC2)N1 (stereo unspecified)
Response: 130

---

- assayed-target: Nuclear receptor subfamily 1 group D member 2 (Homo sapiens)
- Sequence (Q14995 whole entry): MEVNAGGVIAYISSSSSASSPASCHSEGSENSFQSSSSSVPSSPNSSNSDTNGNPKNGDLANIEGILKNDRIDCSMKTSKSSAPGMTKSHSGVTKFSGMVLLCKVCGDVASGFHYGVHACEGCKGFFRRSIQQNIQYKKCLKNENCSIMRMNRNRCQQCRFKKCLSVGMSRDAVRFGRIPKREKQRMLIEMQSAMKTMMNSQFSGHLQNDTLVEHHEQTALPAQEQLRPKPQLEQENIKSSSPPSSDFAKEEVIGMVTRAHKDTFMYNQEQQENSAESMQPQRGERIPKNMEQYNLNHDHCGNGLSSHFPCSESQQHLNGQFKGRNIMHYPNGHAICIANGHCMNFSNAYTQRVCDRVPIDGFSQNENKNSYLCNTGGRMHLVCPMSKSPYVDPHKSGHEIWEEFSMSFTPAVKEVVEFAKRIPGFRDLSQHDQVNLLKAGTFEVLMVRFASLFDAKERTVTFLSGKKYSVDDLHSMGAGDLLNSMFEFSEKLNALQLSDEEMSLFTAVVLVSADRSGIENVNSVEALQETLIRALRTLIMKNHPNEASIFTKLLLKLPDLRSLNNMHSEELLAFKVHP
- protocol: Affinity On-target Cellular interaction: (Reporter gene assay (HEK293T cells)) EUB0001152a NR1D2
- Format: functional, cell-based, HEK-293T
- Design: mode of action Agonist, recommended concentration 10 uM
reported-endpoint: pEC50
The read-out pEC50 is expressed as -log10 of concentration in moles per litre.

Query: # get_value(readout='pEC50', item= CCOC(=O)N1CCC(CN(Cc2ccc(Cl)cc2)Cc2ccc([N+](=O)[O-])s2)C1 (stereo unspecified) )
Response: 4.96
